test: M. tuberculosis growth inhibition, HTS (AID 449762);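 note: bacterial growth assessed after seven days of incubation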; details: M. tuberculosis H37Rv growth inhibition, 7H9 media; at 25 µM; stronger effect = higher value
About 1,900 (0.58%) of roughly 330,000 compounds were called active. Another 4% or so got no clear call; they are omitted. A selection follows. Entries with a potency or affinity are not part of this list.
observable: inhibition

Task: Which inhibition value belongs to O=[N+]([O-])c1cc(S(=O)(=O)N2CCCCC2)ccc1NCCN1CCOCC1 ?
Result: -0.42% (inactive)

Task: And then COc1cc(NC(=O)c2ccc3snnc3c2)cc(OC)c1 , what is it?
Result: -2.63% (inactive)

Task: And then NS(=O)(=O)c1ccc(Nc2nc(-c3ccc4ccccc4c3)cs2)cc1 , what is it?
Result: 1.78% (inactive)

Task: And then CCOC(=O)c1sc(NCCNc2nc(C)c(C(=O)OCC)s2)nc1C , what is it?
Result: -6.54% (inactive)
